test: Cytotoxicity assay (XTT method); assay type: cell-based, Human; conditions: human, Huh-7 cells, 20 μM; 72 h; XTT; mean ± SD; read-out: Huh-7 Cell % viability at 20 μM
Endpoint: viability at 72 h, 20 µM (%)
Report the value in % with no unit label.

Data request: Quick check: viability at 72 h, 20 µM of COc1ccc(-c2cc3ccccc3nc2C(O)c2ccccc2)cc1 (centres unmarked) [Compound 3, reference compound] ?
Data returned: 90.3

Data request: Quick check: viability at 72 h, 20 µM of OC(c1ccccc1)c1nc2cc(Cl)c(Cl)cc2nc1-c1ccc(F)cc1 (centres unmarked) [Compound 18a] ?
Data returned: 102

Data request: Quick check: viability at 72 h, 20 µM of O=C(c1ccccc1)c1nc2ccccc2nc1-c1ccccc1 [Compound 21a, Phenyl(3-phenylquinoxalin-2-yl)methanone] ?
Data returned: 107

Data request: Quick check: viability at 72 h, 20 µM of O=C(c1ccccc1)c1nc2cc(Cl)c(Cl)cc2nc1-c1ccccc1 [Compound 22a] ?
Data returned: 109

Data request: Quick check: viability at 72 h, 20 µM of O=C(c1ccc(O)cc1)c1nc2ccccc2cc1-c1ccc(O)cc1 [Compound 4, reference compound] ?
Data returned: 96.6

Data request: Quick check: viability at 72 h, 20 µM of COc1ccc(-c2nc3cc(Cl)c(Cl)cc3nc2C(=O)c2ccccc2)cc1 [Compound 26a] ?
Data returned: 99.4

Data request: Quick check: viability at 72 h, 20 µM of OC(c1ccccc1)c1nc2cc(Cl)c(Cl)cc2nc1-c1ccccc1 (centres unmarked) [Compound 16a] ?
Data returned: 108

Data request: Quick check: viability at 72 h, 20 µM of COc1ccc(C(=O)c2nc3cc(Cl)c(Cl)cc3nc2-c2ccccc2)cc1 [Compound 22b] ?
Data returned: 103

---

Endpoint: melting point

Data request: Quick check: melting point of OC(c1ccccc1)c1nc2ccccc2nc1-c1ccc(F)cc1 (stereo not drawn) [Compound 17a] ?
Data returned: 157.4 to 158 °C

Data request: Quick check: melting point of OC(c1ccccc1)c1nc2cc(Cl)c(Cl)cc2nc1-c1ccc(F)cc1 (stereo not drawn) [Compound 18a] ?
Data returned: 150 to 150.2 °C

Data request: Quick check: melting point of O=C(c1ccccc1)c1nc2ccccc2nc1-c1ccc(F)cc1 [Compound 23a] ?
Data returned: 94.1 to 96.6 °C

Data request: Quick check: melting point of COc1ccc(C(=O)c2nc3ccccc3nc2-c2ccccc2)cc1 [Compound 21b] ?
Data returned: 130 to 132.4 °C

Data request: Quick check: melting point of COc1ccc(-c2nc3ccccc3nc2C(O)c2ccc(OC)cc2)cc1 (stereo not drawn) [Compound 19b] ?
Data returned: 132.4 to 136 °C

Data request: Quick check: melting point of O=C(c1ccccc1)c1nc2cc(Cl)c(Cl)cc2nc1-c1ccc(F)cc1 [Compound 24a] ?
Data returned: 184.3 to 186.4 °C

Data request: Quick check: melting point of O=C(c1ccc(O)cc1)c1nc2ccccc2nc1-c1ccccc1 ?
Data returned: 196.5 to 199.3 °C

Data request: Quick check: melting point of O=C(c1ccccc1)c1nc2cc(Cl)c(Cl)cc2nc1-c1ccccc1 [Compound 22a] ?
Data returned: 154.3 to 156.8 °C

Data request: Quick check: melting point of Oc1ccc(Cc2nc3ccccc3nc2-c2ccc(O)cc2)cc1 ?
Data returned: 184.8 to 185.9 °C

Data request: Quick check: melting point of COc1ccc(-c2nc3cc(Cl)c(Cl)cc3nc2C(=O)c2ccccc2)cc1 [Compound 26a] ?
Data returned: 173.9 to 174.3 °C

Data request: Quick check: melting point of COc1ccc(C(O)c2nc3ccccc3nc2-c2ccccc2)cc1 (stereo not drawn) [Compound 15b] ?
Data returned: 166 to 168.6 °C

Data request: Quick check: melting point of COc1ccc(C(=O)c2nc3ccccc3nc2-c2ccc(OC)cc2)cc1 [Compound 25b] ?
Data returned: 144.5 to 146.2 °C

Data request: Quick check: melting point of COc1ccc(-c2nc3cc(Cl)c(Cl)cc3nc2C(O)c2ccccc2)cc1 (stereo not drawn) [Compound 20a] ?
Data returned: 156.8 to 157.1 °C

Data request: Quick check: melting point of OC(c1ccccc1)c1nc2cc(Cl)c(Cl)cc2nc1-c1ccccc1 (stereo not drawn) [Compound 16a] ?
Data returned: 136.4 to 136.9 °C

Data request: Quick check: melting point of COc1ccc(-c2nc3ccccc3nc2C(O)c2ccccc2)cc1 (stereo not drawn) [Compound 19a] ?
Data returned: 160.4 to 161.9 °C

Data request: Quick check: melting point of COc1ccc(C(O)c2nc3ccccc3nc2-c2ccc(F)cc2)cc1 (stereo not drawn) [Compound 17b] ?
Data returned: 173 to 174.7 °C

Data request: Quick check: melting point of OC(c1ccccc1)c1nc2ccccc2nc1-c1ccccc1 (stereo not drawn) [Compound 15a, Phenyl(3-phenylquinoxalin-2-yl)methanol] ?
Data returned: 146 to 147 °C

Data request: Quick check: melting point of COc1ccc(C(O)c2nc3cc(Cl)c(Cl)cc3nc2-c2ccccc2)cc1 (stereo not drawn) [Compound 16b] ?
Data returned: 157.2 to 157.6 °C

---

Assign viability at 72 h, 20 µM to each entry below.
test: Cytotoxicity assay (XTT method); format: cell-based, Human; conditions: human, Huh-7 cells, 20 μM; 72 h; XTT; mean ± SD; read-out: Huh-7 Cell % viability at 20 μM
Report the value in % with no unit label.

Data request: Quick check: viability at 72 h, 20 µM of COc1ccc(C(O)c2nc3cc(Cl)c(Cl)cc3nc2-c2ccccc2)cc1 (centres unmarked) [Compound 16b] ?
Data returned: 104

Data request: Quick check: viability at 72 h, 20 µM of OC(c1ccccc1)c1nc2ccccc2nc1-c1ccc(F)cc1 (centres unmarked) [Compound 17a] ?
Data returned: 96.3

Data request: Quick check: viability at 72 h, 20 µM of COc1ccc(C(=O)c2nc3ccccc3nc2-c2ccc(OC)cc2)cc1 [Compound 25b] ?
Data returned: 107

Data request: Quick check: viability at 72 h, 20 µM of O=C(c1ccccc1)c1nc2ccccc2nc1-c1ccc(F)cc1 [Compound 23a] ?
Data returned: 98.6

Data request: Quick check: viability at 72 h, 20 µM of O=C(c1ccc(O)cc1)c1nc2ccccc2nc1-c1ccc(O)cc1 ?
Data returned: 104

---

experiment: Cytotoxicity assay (XTT method); format: cell-based, Human; conditions: human, Huh-7 cells, 20 μM; 72 h; XTT; mean ± SD; read-out: Huh-7 Cell % viability at 20 μM
Endpoint: viability at 72 h, 20 µM

Data request: Quick check: viability at 72 h, 20 µM of O=C(c1ccccc1)c1nc2cc(Cl)c(Cl)cc2nc1-c1ccc(F)cc1 [Compound 24a] ?
Data returned: 106%

Data request: Quick check: viability at 72 h, 20 µM of COc1ccc(-c2nc3cc(Cl)c(Cl)cc3nc2C(O)c2ccc(OC)cc2)cc1 (stereo not drawn) [Compound 20b] ?
Data returned: 95.5%

Data request: Quick check: viability at 72 h, 20 µM of O=C(c1ccc(O)cc1)c1nc2ccccc2nc1-c1ccccc1 [Compound 27] ?
Data returned: 102%

Data request: Quick check: viability at 72 h, 20 µM of COc1ccc(-c2nc3ccccc3nc2C(O)c2ccc(OC)cc2)cc1 (stereo not drawn) [Compound 19b] ?
Data returned: 96.4%

Data request: Quick check: viability at 72 h, 20 µM of COc1ccc(-c2nc3ccccc3nc2C(=O)c2ccccc2)cc1 [Compound 25a] ?
Data returned: 101%

Data request: Quick check: viability at 72 h, 20 µM of COc1ccc(-c2nc3cc(Cl)c(Cl)cc3nc2C(O)c2ccccc2)cc1 (stereo not drawn) [Compound 20a] ?
Data returned: 99.4%

Data request: Quick check: viability at 72 h, 20 µM of COc1ccc(C(=O)c2nc3ccccc3nc2-c2ccccc2)cc1 [Compound 21b] ?
Data returned: 106%

Data request: Quick check: viability at 72 h, 20 µM of COc1ccc(-c2nc3ccccc3nc2C(O)c2ccccc2)cc1 (stereo not drawn) [Compound 19a] ?
Data returned: 99.7%

Data request: Quick check: viability at 72 h, 20 µM of COc1ccc(C(=O)c2nc3cc(Cl)c(Cl)cc3nc2-c2ccc(OC)cc2)cc1 [Compound 26b] ?
Data returned: 104%

---

assay: Cytotoxicity assay (XTT method); type: cell-based, Human; settings: human; uninfected Huh-7 cells; mean ± SD; read-out: CC50 (concentration causing a 50% growth inhibition of uninfected Huh-7 cells)
Endpoint: CC50 at 72 h (µM)
Report the value in µM with no unit label.

Data request: Quick check: CC50 at 72 h of NC(=O)c1ncn([C@@H]2O[C@H](CO)[C@@H](O)[C@H]2O)n1 [Ribavirin] ?
Data returned: 56.3

Data request: Quick check: CC50 at 72 h of COc1ccc(-c2cc3ccccc3nc2C(O)c2ccccc2)cc1 (stereo not drawn) [Compound 3, reference compound] ?
Data returned: 139

Data request: Quick check: CC50 at 72 h of O=C(c1ccc(O)cc1)c1nc2ccccc2cc1-c1ccc(O)cc1 [Compound 4, reference compound] ?
Data returned: 164
